assay: Therapeutic index, ratio of TC50 for MDCK cells to IC50 for Influenza A virus infected in MDCK cells; type: cell-based; settings: dog, read-out: TI
A collection of compounds and their measured selectivity ratio
quantity name: selectivity ratio

INSERT INTO results (compound, quantity_name, qualifier_symbol, recorded_measurement) VALUES
  ('COc1ccc(-c2oc3cc(OC)c(OC)c(O)c3c(=O)c2O)cc1', 'selectivity ratio', '=', 3),
  ('C[C@H]1C(=O)O[C@H]2C[C@]3(C)O[C@H]3CCC3=C[C@@H](OC3=O)[C@@H]21', 'selectivity ratio', '<', 1.7),
  ('CC(C)[C@@H](C)/C=C/[C@@H](C)[C@H]1CC[C@H]2C3=CC[C@H]4C[C@@H](O)CC[C@]4(C)[C@H]3CC[C@]12C', 'selectivity ratio', '=', 2),
  ('C[C@H]1C(=O)O[C@H]2C[C@]3(C)O[C@H]3[C@@H]3O[C@@H]3C3=C[C@@H](OC3=O)[C@@H]21 [DIHYDROMIKANOLIDE]', 'selectivity ratio', '=', 1.5),
  ('CC(=O)O[C@H]1C[C@@H]2O[C@@]2(C)C[C@@H]2OC(=O)[C@H](C)[C@H]2[C@H]2C=C1C(=O)O2', 'selectivity ratio', '=', 1),
  ('COc1ccc(-c2oc3cc(OC)c(OC)c(O)c3c(=O)c2OS(=O)(=O)O)cc1', 'selectivity ratio', '=', 3);

---

A collection of molecules and their measured pIC50
system: Respiratory syncytial virus; test: Antiviral activity against Respiratory syncytial virus infected in human Hep2 cells assessed as inhibition of virus-induced cytopathogenic effect by plaque reduction assay; format: functional, organism-based; details: HEp-2
pIC50: −log10 of the molar value.
quantity name: pIC50

INSERT INTO measurements (molecule, tgt, recorded_measurement) VALUES
  ('CC(=O)O[C@H]1C[C@@H]2O[C@@]2(C)C[C@@H]2OC(=O)[C@H](C)[C@H]2[C@H]2C=C1C(=O)O2', 'Respiratory syncytial virus', 4.21),
  ('CC(C)[C@@H](C)/C=C/[C@@H](C)[C@H]1CC[C@H]2C3=CC[C@H]4C[C@@H](O)CC[C@]4(C)[C@H]3CC[C@]12C', 'Respiratory syncytial virus', 4.30),
  ('NC(=O)c1ncn([C@@H]2O[C@H](CO)[C@@H](O)[C@H]2O)n1 [RIBAVIRIN]', 'Respiratory syncytial virus', 4.97),
  ('C[C@H]1C(=O)O[C@H]2C[C@]3(C)O[C@H]3CCC3=C[C@@H](OC3=O)[C@@H]21', 'Respiratory syncytial virus', 4.43),
  ('COc1ccc(-c2oc3cc(OC)c(OC)c(O)c3c(=O)c2O)cc1 [MIKANIN]', 'Respiratory syncytial virus', 4.26),
  ('C[C@H]1C(=O)O[C@H]2C[C@]3(C)O[C@H]3[C@@H]3O[C@@H]3C3=C[C@@H](OC3=O)[C@@H]21 [DIHYDROMIKANOLIDE]', 'Respiratory syncytial virus', 3.85),
  ('COc1ccc(-c2oc3cc(OC)c(OC)c(O)c3c(=O)c2OS(=O)(=O)O)cc1', 'Respiratory syncytial virus', 4.10);

---

assay: Therapeutic index, ratio of TC50 for human Hep2 cells to IC50 for Parainfluenza virus type 3 infected in human Hep2 cells; assay type: cell-based, HEp-2; details: read-out: TI
selectivity ratio strictly less than 2 = t. Otherwise f.

INSERT INTO assay_data (compound, discrete_label) VALUES
  ('CC(C)[C@@H](C)/C=C/[C@@H](C)[C@H]1CC[C@H]2C3=CC[C@H]4C[C@@H](O)CC[C@]4(C)[C@H]3CC[C@]12C', 'f'),
  ('CC(=O)O[C@H]1C[C@@H]2O[C@@]2(C)C[C@@H]2OC(=O)[C@H](C)[C@H]2[C@H]2C=C1C(=O)O2', 't'),
  ('COc1ccc(-c2oc3cc(OC)c(OC)c(O)c3c(=O)c2OS(=O)(=O)O)cc1', 'f'),
  ('C[C@H]1C(=O)O[C@H]2C[C@]3(C)O[C@H]3[C@@H]3O[C@@H]3C3=C[C@@H](OC3=O)[C@@H]21 [DIHYDROMIKANOLIDE]', 't'),
  ('C[C@H]1C(=O)O[C@H]2C[C@]3(C)O[C@H]3CCC3=C[C@@H](OC3=O)[C@@H]21', 'f');

---

system: Human respirovirus 3; experiment: Antiviral activity against Parainfluenza virus type 3 infected in human Hep2 cells assessed as inhibition of virus-induced cytopathogenic effect by plaque reduction assay; type: functional, organism-based; conditions: Human respirovirus 3, HEp-2
Measured log10 IC50 accompanies every entry in the list below.
quantity name: log10 IC50 (log10 of the value in µM)

INSERT INTO assay_data (compound, tgt, quantity_name, recorded_measurement) VALUES
  ('COc1ccc(-c2oc3cc(OC)c(OC)c(O)c3c(=O)c2O)cc1 [MIKANIN]', 'Human respirovirus 3', 'log10 IC50', 1.62),
  ('C[C@H]1C(=O)O[C@H]2C[C@]3(C)O[C@H]3[C@@H]3O[C@@H]3C3=C[C@@H](OC3=O)[C@@H]21 [DIHYDROMIKANOLIDE]', 'Human respirovirus 3', 'log10 IC50', 2.16),
  ('NC(=O)c1ncn([C@@H]2O[C@H](CO)[C@@H](O)[C@H]2O)n1 [RIBAVIRIN]', 'Human respirovirus 3', 'log10 IC50', 1.03),
  ('C[C@H]1C(=O)O[C@H]2C[C@]3(C)O[C@H]3CCC3=C[C@@H](OC3=O)[C@@H]21', 'Human respirovirus 3', 'log10 IC50', 1.57),
  ('CC(C)[C@@H](C)/C=C/[C@@H](C)[C@H]1CC[C@H]2C3=CC[C@H]4C[C@@H](O)CC[C@]4(C)[C@H]3CC[C@]12C', 'Human respirovirus 3', 'log10 IC50', 1.70),
  ('CC(=O)O[C@H]1C[C@@H]2O[C@@]2(C)C[C@@H]2OC(=O)[C@H](C)[C@H]2[C@H]2C=C1C(=O)O2', 'Human respirovirus 3', 'log10 IC50', 2.27),
  ('COc1ccc(-c2oc3cc(OC)c(OC)c(O)c3c(=O)c2OS(=O)(=O)O)cc1', 'Human respirovirus 3', 'log10 IC50', 1.29);

---

test: Cytotoxicity against human Hep2 cells; assay type: cell-based, HEp-2; details: read-out: TC50 (the source's name)
# t = CC50 below 300 µM (exclusive); f = CC50 at/above 300 µM

INSERT INTO assay_data (compound, discrete_label) VALUES
  ('COc1ccc(-c2oc3cc(OC)c(OC)c(O)c3c(=O)c2OS(=O)(=O)O)cc1', 'f'),
  ('CC(=O)O[C@H]1C[C@@H]2O[C@@]2(C)C[C@@H]2OC(=O)[C@H](C)[C@H]2[C@H]2C=C1C(=O)O2', 't'),
  ('C[C@H]1C(=O)O[C@H]2C[C@]3(C)O[C@H]3CCC3=C[C@@H](OC3=O)[C@@H]21', 'f'),
  ('C[C@H]1C(=O)O[C@H]2C[C@]3(C)O[C@H]3[C@@H]3O[C@@H]3C3=C[C@@H](OC3=O)[C@@H]21 [DIHYDROMIKANOLIDE]', 't'),
  ('COc1ccc(-c2oc3cc(OC)c(OC)c(O)c3c(=O)c2O)cc1', 't');

---

IC50 overview
tested on: Influenza A virus; test: Antiviral activity against Influenza A virus infected in MDCK cells assessed as inhibition of virus-induced cytopathogenic effect by plaque reduction assay; format: functional, organism-based
quantity name: IC50 (µM)

INSERT INTO measurements (chemical_string, recorded_measurement) VALUES
  ('COc1ccc(-c2oc3cc(OC)c(OC)c(O)c3c(=O)c2O)cc1', 167),
  ('CC(=O)O[C@H]1C[C@@H]2O[C@@]2(C)C[C@@H]2OC(=O)[C@H](C)[C@H]2[C@H]2C=C1C(=O)O2', 186),
  ('CC(C)[C@@H](C)/C=C/[C@@H](C)[C@H]1CC[C@H]2C3=CC[C@H]4C[C@@H](O)CC[C@]4(C)[C@H]3CC[C@]12C', 202);
